Target: 5-HT3A receptor Q151C (Homo sapiens, UniProt P46098, Q146C)
Construct: expressed in transfected cells; host or cells: HEK 293
Assay: Saturation binding of [^3H]VUF10166 at 5-HT3A receptor mutant
Settings: Q151C, Loop E; read-out: Kd (nM) Mean ± SEM
MEASURED METRIC: Kd (nM)
Reply numerically in nM, unit not repeated.

*Q* Fill in: Kd of CN1CCN(c2nc3ccccc3nc2Cl)CC1 [[^3H]VUF10166] is ___
*A* 1.82

====

Molecular target: 5-HT3A receptor R92C (Homo sapiens, UniProt P46098, R87C)
Construct: expressed in transfected cells; host or cells: HEK 293
Sequence (P46098 24-478 R87C): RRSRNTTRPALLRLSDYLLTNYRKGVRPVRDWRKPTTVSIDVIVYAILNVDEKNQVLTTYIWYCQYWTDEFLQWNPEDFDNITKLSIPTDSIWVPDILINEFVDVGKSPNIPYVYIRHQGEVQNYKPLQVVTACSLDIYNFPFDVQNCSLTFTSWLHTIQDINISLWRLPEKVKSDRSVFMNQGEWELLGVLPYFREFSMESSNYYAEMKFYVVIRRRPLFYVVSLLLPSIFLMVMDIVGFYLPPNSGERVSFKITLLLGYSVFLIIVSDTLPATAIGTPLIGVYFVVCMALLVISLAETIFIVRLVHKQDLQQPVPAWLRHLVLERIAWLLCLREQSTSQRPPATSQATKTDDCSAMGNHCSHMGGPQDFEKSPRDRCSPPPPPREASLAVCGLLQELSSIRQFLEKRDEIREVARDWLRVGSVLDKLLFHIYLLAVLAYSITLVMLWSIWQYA
Test: Saturation binding of [^3H]VUF10166 at 5-HT3A receptor mutant
Settings: R92C, Loop D; read-out: Kd (nM) Mean ± SEM
MEASURED METRIC: Kd (nM)
Reply numerically in nM, unit not repeated.

*Q* Fill in: Kd of CN1CCN(c2nc3ccccc3nc2Cl)CC1 [[^3H]VUF10166] is ___
*A* 0.88

====

Target: 5-HT3A receptor E129C (Homo sapiens, UniProt P46098, E124C)
Construct: expressed in transfected cells; host or cells: HEK 293
Assay: Saturation binding of [^3H]VUF10166 at 5-HT3A receptor mutant
Settings: Loop A, read-out: Kd (nM) Mean ± SEM
MEASURED METRIC: Kd

*Q* Fill in: Kd of CN1CCN(c2nc3ccccc3nc2Cl)CC1 [[^3H]VUF10166] is ___
*A* > 10 nM

====

Recorded IC50, one value per entry.
Target: 5-HT3A receptors (Homo sapiens, UniProt P46098)
Assay: biochemical
Reply numerically in µM, unit not repeated.

Worked cases, IC50 given:
>>> measurement("COc1cc2c3cc1Oc1cc(ccc1O)C[C@@H]1c4c(cc(OC)c(O)c4Oc4ccc(cc4)C[C@@H]3N(C)CC2)CC[N+]1(C)C")
24.5
>>> measurement("O=C1C[C@@H]2OCC=C3CN4CC[C@]56c7ccccc7N1[C@H]5[C@H]2[C@H]3C[C@H]46")
50.1

*Q* Fill in: IC50 of CN1CCC[C@H]1c1cccnc1 is ___
*A* 0.977

====

Biological target: 5-HT3AB receptors (Homo sapiens, UniProt O95264+P46098)
Experiment: Competition binding with [^3H]VUF10166 at 5-HT3AB receptors
Details: 5-HT3AB
MEASURED METRIC: inhibition of specific [^3H]VUF10166 binding (in words)

>>> measurement("c1ccc2nc(N3CCNCC3)ccc2c1 [Quipazine]")
"inhibited"
>>> measurement("NCC(=O)O [Glycine]")
"not"
>>> measurement("CC(=O)OCC[N+](C)(C)C [ACh]")
"not"
>>> measurement("COc1ccc(-c2ccc(=N)n(CCCC(=O)O)n2)cc1 [Gabazine]")
"not"

Query compound follows.
*Q* Fill in: inhibition of specific [^3H]VUF10166 binding (in words) of NC(N)=NC(N)=Nc1cccc(Cl)c1 [mCPBG, meta-chlorophenylbiguanide] is ___
*A* inhibited

Taken from paper PMC4220016.
